Provide the reported pIC50 of each item.
SYSTEM NAME: c-erbB-2 (Homo sapiens)
Construct: baculovirus expressed, recombinant constructs of the intracellular domains of c-erbB-2 and c-erbB-4; made in house
Sequence (P04626 676-1255 limits assumed): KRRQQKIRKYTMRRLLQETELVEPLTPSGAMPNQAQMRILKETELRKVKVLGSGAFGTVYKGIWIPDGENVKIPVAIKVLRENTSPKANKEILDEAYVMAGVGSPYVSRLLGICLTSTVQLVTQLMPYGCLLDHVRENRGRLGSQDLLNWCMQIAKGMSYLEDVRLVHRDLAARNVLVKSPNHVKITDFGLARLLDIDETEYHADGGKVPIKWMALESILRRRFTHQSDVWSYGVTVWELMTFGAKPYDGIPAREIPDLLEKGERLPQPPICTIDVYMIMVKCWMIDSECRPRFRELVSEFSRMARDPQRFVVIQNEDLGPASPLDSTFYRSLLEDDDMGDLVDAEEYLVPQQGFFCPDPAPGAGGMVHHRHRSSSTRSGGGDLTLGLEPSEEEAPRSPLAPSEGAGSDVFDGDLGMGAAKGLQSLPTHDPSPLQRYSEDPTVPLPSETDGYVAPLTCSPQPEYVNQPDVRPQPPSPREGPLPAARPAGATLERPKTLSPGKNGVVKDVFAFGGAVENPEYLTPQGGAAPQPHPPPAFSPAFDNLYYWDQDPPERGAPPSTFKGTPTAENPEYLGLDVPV
METHOD: Substrate phosphorylation assay, erbB2, assay (b) (SPA, 33P-ATP)
Assay type: biochemical
CONDITION: Tables 1A and 1B
pIC50: −log10 of the molar value. Counter-ions that a name gives are not always drawn.

Lookup: Which measured pIC50 value corresponds to CS(=O)(=O)CCNCc1cccc(-c2cc3c(Nc4ccc(OCc5ccccc5)cc4)ncnc3cn2)c1 [Example 4, dihydrochloride] ?
Found: 6.00 to 7.00

Lookup: Another molecule to check: "CS(=O)(=O)CCNCc1nc(-c2ccc3ncnc(Nc4ccc5c(cnn5Cc5cccc(F)c5)c4)c3c2)cs1"
Found: > 7.00

Lookup: Try this molecule next: "CS(=O)(=O)CCNCc1ccc(-c2ccc3ncnc(Nc4ccc(OCc5ccccc5)c(F)c4)c3c2)o1"
Found: > 7.00

Lookup: Another: "COc1cc(Nc2ncnc3ccc(-c4csc(CNCCS(C)(=O)=O)n4)cc23)ccc1OCc1cccc(F)c1"
Found: 6.00 to 7.00

###

Consider the following compounds; for each one, report its IC50.
Tested on: HB4a r4.2 (HB4a transfected with human H-ras cDNA)
METHOD: Methylene blue growth inhibition assay, HB4a ras
Format: cell-based
CONDITION: 72 h, HB4a r4.2, 3 days, read-out: Cell Proliferation HB4a ras, IC50
Structures can show the parent of a compound that is named as a salt.

Lookup: Give IC50 (HB4a r4.2 (HB4a transfected with human H-ras cDNA)) of the following compound: "COc1cc2ncnc(Nc3ccc(S(=O)(=O)c4ccccc4)cc3)c2cc1-c1ccc(CNCCS(C)(=O)=O)o1"
Found: < 5 µM

Lookup: Please do the same for CS(=O)(=O)CCNCc1cccc(-c2cc3c(Nc4ccc(OCc5ccccc5)cc4)ncnc3cn2)c1 [Example 4, dihydrochloride] as well.
Found: > 50 µM

Lookup: Next: "CS(=O)(=O)CCNCc1ccc(-c2ccc3ncnc(Nc4ccc(OCc5ccccc5)c(F)c4)c3c2)o1"
Found: 5 to 25 µM

Lookup: Next compound: CS(=O)(=O)CCNCc1ccc(-c2cc3c(Nc4ccc(OCc5ccc(F)cc5)cc4)ncnc3cn2)o1 [Example 1, dihydrochloride]
Found: 25 to 50 µM

Lookup: And for "CS(=O)(=O)CCNCc1ccc(-c2ccc3ncnc(Nc4ccc(OCc5cccc(F)c5)c(Cl)c4)c3c2)o1" ?
Found: > 50 µM

Lookup: Try "CS(=O)(=O)CCNCc1ccc(-c2ccc3ncnc(Nc4ccc(OCc5ccccc5)c(C(F)(F)F)c4)c3c2)o1" next.
Found: 25 to 50 µM

Lookup: # iterate: "CS(=O)(=O)CCNCc1nc(-c2ccc3ncnc(Nc4ccc(OCc5cccc(C(F)(F)F)c5)cc4)c3c2)cs1"
Found: > 50 µM

Lookup: How about this compound: "CS(=O)(=O)CCNCc1ccc(-c2ccc3ncnc(Nc4ccc(S(=O)(=O)c5ccccc5)cc4)c3c2)o1"
Found: 25 to 50 µM

Lookup: Entry to check: "CS(=O)(=O)CCNCc1nc(-c2ccc3ncnc(Nc4ccc5c(cnn5Cc5cccc(F)c5)c4)c3c2)cs1"
Found: 5 to 25 µM

Lookup: Can you handle "CS(=O)(=O)CCNCc1nc(-c2ccc3ncnc(Nc4ccc(OCc5cccc(Br)c5)cc4)c3c2)cs1" next?
Found: > 50 µM

Lookup: Queued: CS(=O)(=O)CCNCc1ccc(-c2ccc3ncnc(Nc4ccc(OCc5ccccc5)cc4)c3c2)o1 [Example 5, dihydrochloride]
Found: > 50 µM

Lookup: Let us now turn to CS(=O)(=O)CCNCc1nc(-c2ccc3ncnc(Nc4ccc(OCc5ccccc5)cc4)c3c2)cs1 [Example 7, dihydrochloride]
Found: 5 to 25 µM

Lookup: Consider next the compound "COc1cc2ncnc(Nc3ccc(OCc4ccccc4)cc3)c2cc1-c1ccc(CNCCS(C)(=O)=O)o1" in the same way.
Found: 5 to 25 µM

Lookup: Also CS(=O)(=O)CCNCc1coc(-c2cc3c(Nc4ccc(OCc5cccc(F)c5)cc4)ncnc3cn2)c1 [Example 6, dihydrochloride] , if possible.
Found: 25 to 50 µM
